Numbers sourced from paper PMC9092470.

Molecular target: T1, p300 CH1 domain (residues 330–420) (UniProt Q09472 330-420)
T1 construct: p300 CH1 domain, residues 330–420; The cleavage of GST is said for the anisotropy control; also called p300 with the GST tag cleaved; source: recombinantly expressed as a fusion protein with GST, GST tag cleaved
T1 sequence (Q09472 330-420): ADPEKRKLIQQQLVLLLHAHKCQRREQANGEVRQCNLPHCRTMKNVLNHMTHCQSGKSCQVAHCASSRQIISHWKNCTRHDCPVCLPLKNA
Test: ITC; 10 μM p300 in the cell, 100 μM GFP-HIF-1α 776–826 variant in the syringe; 37 °C; 25 mM Tris–HCl, 150 mM NaCl, 1 mM DTT, pH 7.4; fixed 1:1 stoichiometry
Conditions: both partners purified
recorded_metric: dH

Measured dH of GFP-HIF-1α 776–826 L792A (domain or fragment, UniProt Q16665 776-826, looked up, As m3 with the stated change; measured by ITC only; also called HIF-1α L792A; source: recombinantly expressed as a fusion protein with GFP) SDLACRLLGQSMDESGAPQLTSYDCEVNAPIQGSRNLLQGEELLRALDQVN : -13.6 kcal/mol

Measured dH of GFP-HIF-1α 776–826 D823A (domain or fragment, UniProt Q16665 776-826, looked up, As m3 with the stated change; also called HIF-1α D823A; source: recombinantly expressed as a fusion protein with GFP) SDLACRLLGQSMDESGLPQLTSYDCEVNAPIQGSRNLLQGEELLRALAQVN : -13 kcal/mol

Measured dH of GFP-HIF-1α 776–826 E801A (domain or fragment, UniProt Q16665 776-826, looked up, As m3 with the stated change; also called HIF-1α E801A; source: recombinantly expressed as a fusion protein with GFP) SDLACRLLGQSMDESGLPQLTSYDCAVNAPIQGSRNLLQGEELLRALDQVN : -12.2 kcal/mol

Measured dH of GFP-tagged wt HIF-1α 776–826 C-TAD (domain or fragment, UniProt Q16665 776-826, looked up, source: recombinantly expressed as a fusion protein with GFP) SDLACRLLGQSMDESGLPQLTSYDCEVNAPIQGSRNLLQGEELLRALDQVN : -17.3 kcal/mol
